- target-entity: purified human HDAC6 (Homo sapiens, UniProt Q9UBN7)
- Sequence (Q9UBN7 1-1215): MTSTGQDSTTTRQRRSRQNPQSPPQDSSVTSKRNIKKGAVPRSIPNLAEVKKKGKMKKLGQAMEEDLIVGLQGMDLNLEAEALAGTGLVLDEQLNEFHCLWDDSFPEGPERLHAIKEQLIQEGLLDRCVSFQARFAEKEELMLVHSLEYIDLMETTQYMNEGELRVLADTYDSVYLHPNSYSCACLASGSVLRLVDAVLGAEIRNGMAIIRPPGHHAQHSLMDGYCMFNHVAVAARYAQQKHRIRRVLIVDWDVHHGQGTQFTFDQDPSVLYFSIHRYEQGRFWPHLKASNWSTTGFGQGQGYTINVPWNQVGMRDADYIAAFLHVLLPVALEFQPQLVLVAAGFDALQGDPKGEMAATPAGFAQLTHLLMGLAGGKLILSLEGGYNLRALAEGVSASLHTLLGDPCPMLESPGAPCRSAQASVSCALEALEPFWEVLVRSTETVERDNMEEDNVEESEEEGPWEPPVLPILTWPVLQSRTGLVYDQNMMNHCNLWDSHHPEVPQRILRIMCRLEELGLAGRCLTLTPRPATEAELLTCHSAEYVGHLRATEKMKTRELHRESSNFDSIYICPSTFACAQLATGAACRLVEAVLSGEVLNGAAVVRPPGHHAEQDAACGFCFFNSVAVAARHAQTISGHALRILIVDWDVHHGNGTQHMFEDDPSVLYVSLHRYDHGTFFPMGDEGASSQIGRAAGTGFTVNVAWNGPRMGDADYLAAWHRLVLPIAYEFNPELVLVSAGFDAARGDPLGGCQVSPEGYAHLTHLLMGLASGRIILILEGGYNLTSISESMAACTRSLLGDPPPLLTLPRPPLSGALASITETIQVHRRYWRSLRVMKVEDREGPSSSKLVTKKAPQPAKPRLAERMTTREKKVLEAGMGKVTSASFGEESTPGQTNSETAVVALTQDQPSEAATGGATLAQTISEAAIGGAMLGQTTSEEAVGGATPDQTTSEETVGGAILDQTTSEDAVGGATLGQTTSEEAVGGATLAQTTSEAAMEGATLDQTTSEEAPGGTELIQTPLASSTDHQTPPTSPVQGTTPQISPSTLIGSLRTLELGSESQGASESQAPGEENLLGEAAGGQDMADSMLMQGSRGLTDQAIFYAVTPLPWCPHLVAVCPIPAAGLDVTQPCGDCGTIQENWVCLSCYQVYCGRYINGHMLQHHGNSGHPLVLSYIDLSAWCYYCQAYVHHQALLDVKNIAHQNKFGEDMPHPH
assay-metric: IC50

compound: C[C@@H](NC(=O)C(C)(C)C)c1ncc(C(=O)NO)s1
target-entity: purified human HDAC6 (Homo sapiens, UniProt Q9UBN7)
result: > 500 nM

compound: Cc1nc(-c2ccccn2)sc1C(=O)N[C@@H](C)c1ncc(C(=O)NO)s1
target-entity: purified human HDAC6 (Homo sapiens, UniProt Q9UBN7)
result: < 100 nM

compound: CC(NS(=O)(=O)c1ccccc1F)c1ccc(C(=O)NO)s1 (stereo not drawn)
target-entity: purified human HDAC6 (Homo sapiens, UniProt Q9UBN7)
result: 100 to 500 nM

compound: C[C@@H](NC(=O)c1cc2ccccc2o1)c1cc(C(=O)NO)on1
target-entity: purified human HDAC6 (Homo sapiens, UniProt Q9UBN7)
result: > 500 nM

compound: C[C@@H](NC(=O)c1ccc(-c2ccccc2)cc1)c1ccc(C(=O)NO)s1
target-entity: purified human HDAC6 (Homo sapiens, UniProt Q9UBN7)
result: < 100 nM

compound: CC(NC(=O)NC(C)(C)C)c1ccc(C(=O)NO)s1 (stereo not drawn)
target-entity: purified human HDAC6 (Homo sapiens, UniProt Q9UBN7)
result: 100 to 500 nM

compound: CC(NC(=O)Nc1ccccc1-c1ccccc1)c1ccc(C(=O)NO)s1 (stereo not drawn)
target-entity: purified human HDAC6 (Homo sapiens, UniProt Q9UBN7)
result: 100 to 500 nM

compound: CC(NS(=O)(=O)c1ccccc1)c1ccc(C(=O)NO)s1 (stereo not drawn)
target-entity: purified human HDAC6 (Homo sapiens, UniProt Q9UBN7)
result: 100 to 500 nM

compound: CC(NC(=O)Nc1c(F)cccc1F)c1ccc(C(=O)NO)s1 (stereo not drawn)
target-entity: purified human HDAC6 (Homo sapiens, UniProt Q9UBN7)
result: 100 to 500 nM

compound: C[C@H](NC(=O)c1nc2ccccc2n1C)c1ncc(C(=O)NO)s1
target-entity: purified human HDAC6 (Homo sapiens, UniProt Q9UBN7)
result: < 100 nM

compound: Cc1c(C(=O)N[C@H](C)c2ccc(C(=O)NO)s2)oc2ccccc12
target-entity: purified human HDAC6 (Homo sapiens, UniProt Q9UBN7)
result: < 100 nM

compound: CC(NC(=O)Nc1ccc(OC(F)F)cc1)c1ccc(C(=O)NO)s1 (stereo not drawn)
target-entity: purified human HDAC6 (Homo sapiens, UniProt Q9UBN7)
result: < 100 nM

compound: CC(NC(=O)Nc1ccccc1)c1ccc(C(=O)NO)s1 (stereo not drawn)
target-entity: purified human HDAC6 (Homo sapiens, UniProt Q9UBN7)
result: < 100 nM

compound: C[C@@H](NC(=O)C12CC3CC(CC(C3)C1)C2)c1cc(C(=O)NO)on1
target-entity: purified human HDAC6 (Homo sapiens, UniProt Q9UBN7)
result: > 500 nM

compound: CC(NS(=O)(=O)c1cn(C)cn1)c1ccc(C(=O)NO)s1 (stereo not drawn)
target-entity: purified human HDAC6 (Homo sapiens, UniProt Q9UBN7)
result: 100 to 500 nM
